The measurements presented in this section are drawn from ChEMBL document CHEMBL1154261.

# Tested on: HEK293
# Procedure summary: Cytotoxicity against HEK293 cells after 48 hrs by resazurin conversion-based fluorometric assay
# Format: cell-based
# Conditions used: Homo sapiens, HEK293, 48 h
Listing of recorded IC50 by entry.
Number in µM, nothing else.

Given the entry C[C@@H]1C(=O)O[C@@H](C(C)(C)O)c2nc(cs2)C(=O)OC(C)(C)[C@H](O)c2nc(cs2)C(=O)O[C@H]1CCCC(C)(Cl)Cl [DEACETYLHECTOCHLORIN] , what IC50 was observed with HEK293? 6

Given the entry CC(CC(=O)N(C)[C@@H]1C(=O)N(C)[C@@H](C(C)C)C(=O)N[C@H](C)C(=O)N(C)[C@@H](C)C(=O)N(C)[C@H](Cc2ccccc2)C(=O)N[C@@H](C)C(=O)O[C@@H]1C)C(Cl)Cl (stereo not given in full) [ITRALAMIDE A] , what IC50 was observed with HEK293? 54

---

# Test system: HEK293
# Procedure summary: Cytotoxicity against HEK293 cells after 48 hrs by resazurin conversion-based fluorometric assay
# Format: cell-based
# Conditions used: Homo sapiens, HEK293, 48 h
Starred links: 1 amine or outer side, 2 acyl side, 3 side chain; linkers in the order of their positions; H or OH if unused. Non-standard residues stand in square brackets, D forms with d. Residues, ends and D or L forms follow the SMILES beside them. X1 = CCC[C@@H](N[*:1])[C@H](C)C(=O)[*:2]; Met(O2) = CS(=O)(=O)CC[C@H](N)C(=O)O; dNMeF = CN[C@H](Cc1ccccc1)C(=O)O; NMeL = CN[C@@H](CC(C)C)C(=O)O; dHiv = CC(C)[C@@H](O)C(=O)O
Observation type: IC50

What value of IC50 has been reported for the following compound? CCC/C(=C\Cl)CCCC(=O)NC(C)CC(C)C(=O)C(C)CC/C=C/Cl (stereo not drawn) [GRENADAMIDE] ≥ 100 µM

What value of IC50 has been reported for the following compound? C=CCCC(C)C(=O)C(C)CC(C)NC(=O)CCC/C(=C/Cl)CCC (stereo not drawn) [GRENADAMIDE B] ≥ 100 µM

What value of IC50 has been reported for the following compound? CCC[C@H]1NC(=O)[C@H](C)NC(=O)[C@H](CC(C)C)N(C)C(=O)[C@H](Cc2ccccc2)NC(=O)[C@H](CCS(C)(=O)=O)NC(=O)[C@@H](Cc2ccccc2)N(C)C(=O)[C@@H](C(C)C)OC(=O)[C@H]1C [CARRIEBOWMIDE SULFONE] (cyclo(A[X1][dHiv][dNMeF][Met(O2)]F[NMeL])) > 50 µM
